B1: Caulobacter ParB omega fusion; a variant is named by its letters at X, in order, B8GW30 (parent)
chain: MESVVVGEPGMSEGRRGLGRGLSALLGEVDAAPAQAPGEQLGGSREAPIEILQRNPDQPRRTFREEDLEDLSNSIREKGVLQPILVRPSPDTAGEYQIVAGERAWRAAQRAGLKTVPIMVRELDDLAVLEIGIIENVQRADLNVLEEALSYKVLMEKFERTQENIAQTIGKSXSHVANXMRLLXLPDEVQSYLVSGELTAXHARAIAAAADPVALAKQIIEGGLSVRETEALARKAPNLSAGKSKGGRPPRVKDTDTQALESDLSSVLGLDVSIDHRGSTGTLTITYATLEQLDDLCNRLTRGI

# Variants of: B1
# method.notes: one-hybrid fitness for binding parS DNA (scaled: cognate 1, non-cognate 0); higher = stronger binding
# setup.conditions: with parS DNA site
In all, about 81,000 sequences were measured (“one-hybrid fitness for binding parS DNA”: median about -0.17, highest 2% from about 0.51 on). Many of the other results were omitted from the sample, so the highest values are more common in it than they were.
one-hybrid fitness for binding parS DNA overview

These recorded examples may help you get a feel for the data.
NVIK :: ≤ 0.2
QPAK :: ≤ 0.2
RHGP :: ≤ 0.2
RVVT :: 0.795
LEMT :: ≤ 0.2
TSHS :: ≤ 0.2
TAAQ :: ≤ 0.2
RRFC :: 0.679

--- query ---
What does the data say about its one-hybrid fitness for binding parS DNA? Entry: RHRH
0.232
